- Experiment: Proxy for plastic degradation [UPLC/UHPLC]
- Protocol Conditions: pH 9; 40 °C
Please respond with reported Proxy for plastic degradation for every item in the list.

unnamed (protein) MTAAAVSSRYYEETGPHAVTVEQGGPDHTLYYPSDLGAGGTQHPVVIWGNGTGATPETYDEGLRHFASWGFVVAAANTTQAGSGKEMLAGARFLIEEDQRSGSVFYGKIDETRIGAAGHSQGGGGAIAAGADPIVDTTIPIQPGPQGTVGDLHGPAFFISGQFDWIVPSSYVYSRYLGADHVPAVFGELRGADHFFPGDTRLRLIGATTAWFRFHLMADENARGIFFGPSSTCGICTDTEAWSKVDRNAKAQAIPG : 14.7 µM

Which Proxy for plastic degradation is listed for unnamed (protein) MSHRFRLAAAVCVAAAILVPATPAAAADPWDAPGPYATAVQIGAVNTLYYPRDIASSPRRHPVIVWGNGTGAAPLVYRDLLLYWASHGFIVSAANTPASNLGISMRLGIDALAAADADPGSIFRGKVDLAHIGASGHSQGGAAAIVVGADPRIDAILPIQPGPLADIDDVHVPALLLAGQHDSIVFPFLVKAFYNDATHIPAIYAEVRGADHFTVVGDPGPFAAPTTAWFRFQLMGDTAARAEFYGPSCGICTDTRTWSDVRRNALVP ?
13.4 µM
